Data origin: patent US11351178B2

Test system UniProt Q13547, IC50 listed for each of the molecules.
Sequence (Q13547 whole entry): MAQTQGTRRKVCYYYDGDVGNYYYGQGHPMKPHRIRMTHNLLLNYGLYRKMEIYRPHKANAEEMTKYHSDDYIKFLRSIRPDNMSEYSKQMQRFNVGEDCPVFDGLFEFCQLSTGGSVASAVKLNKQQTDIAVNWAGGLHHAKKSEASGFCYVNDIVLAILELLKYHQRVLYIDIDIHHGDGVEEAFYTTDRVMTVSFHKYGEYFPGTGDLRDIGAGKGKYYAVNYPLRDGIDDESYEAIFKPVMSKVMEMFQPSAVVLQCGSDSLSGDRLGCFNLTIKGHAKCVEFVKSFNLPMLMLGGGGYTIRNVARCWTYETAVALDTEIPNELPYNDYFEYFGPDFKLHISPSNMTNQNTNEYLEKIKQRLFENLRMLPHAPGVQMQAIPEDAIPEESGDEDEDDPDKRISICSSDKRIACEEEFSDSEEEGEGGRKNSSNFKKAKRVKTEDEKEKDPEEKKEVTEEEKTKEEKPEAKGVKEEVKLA
Parameter measured: IC50 (µM)

Molecule | Numeric result
O=C(NO)c1cc(F)c(Cn2nnnc2-c2cccs2)c(F)c1 [comp. 15] | 7.09
O=C(NO)c1ccc(Cc2nnc(-c3ccc(F)cc3F)o2)cc1 [comp. 58] | 0.364
O=C(NO)c1cc(F)c(Cn2nnc(-c3ccccn3)n2)c(F)c1 [comp. 6] | 7.51
Nn1c(Sc2ccc(C(=O)NO)cc2)nnc1-c1ccc(OC(F)F)cc1 [comp. 28] | 0.426
Cn1c(Sc2c(F)cc(C(=O)NO)cc2F)nnc1-c1cccs1 [comp. 17] | 3.99

---

- Test description: Stability in human plasma
- Type: in vitro ADME
- Assay conditions: after 4 hours, 37° C.

Chemical structure | residual percentage in human plasma [%]
O=C(NO)c1cc(F)c(Cc2noc(-c3cncc(N4CC5(COC5)C4)c3)n2)c(F)c1 | 88
Cn1c(Sc2c(F)cc(C(=O)NO)cc2F)nnc1-c1ccco1 | 90
O=C(NO)c1ccc(Cc2noc(-c3ccccc3)n2)cc1 | 100
COCCN(CCOC)c1cncc(-c2nc(Cc3c(F)cc(C(=O)NO)cc3F)no2)c1 | 102
COc1ccc(C(=O)N[C@@H](Cc2cscn2)c2nc(Cc3ccc(C(=O)NO)cc3)no2)cc1OC | 102
CN1CCN(Cc2ccc(-c3nnc(Sc4ccc(C(=O)NO)cc4)n3C)o2)CC1 | 77
O=C(NO)c1cc(F)c(Cc2nnc(-c3cncc(N4CCOCC4)c3)s2)c(F)c1 | 96
CN(c1ccc(-c2nnc(Sc3c(F)cc(C(=O)NO)cc3F)s2)cc1)S(C)(=O)=O | 92
Cn1c(Sc2c(F)cc(C(=O)NO)cc2F)nnc1-c1ccc(CN2CCOCC2)o1 | 79
O=C(NO)c1ccc(Sc2nnc(-c3ccccc3)o2)cc1 | 90
Cn1c(Sc2c(F)cc(C(=O)NO)cc2F)nnc1-c1ccc(CCN2CCCC2)nc1 | 79
O=C(NO)c1ccc(Cn2nnnc2-c2ccccc2)cc1 | 90
CN1CCN(Cc2ccc(-c3nnc(Sc4c(F)cc(C(=O)NO)cc4F)n3C)o2)CC1 | 80
Cn1c(Sc2c(F)cc(C(=O)NO)cc2F)nnc1-c1cccnn1 | 100
CC1(C)CC(=O)c2c(S(C)(=O)=O)sc(-c3nnn(Cc4ccc(C(=O)NO)cc4)n3)c2C1 | 100
O=C(NO)c1cc(F)c(Sc2nnc(-c3cccnc3)s2)c(F)c1 | 93
O=C(NO)c1cc(F)c(Cn2nnc(-c3ccco3)n2)c(F)c1 | 100
Cn1c(Sc2c(F)cc(C(=O)NO)cc2F)nnc1-c1ncccc1F | 97
